Where do the numbers come from? From patent US20150140169.

- TEST TARGET: T1, alpha-s1 casein from Bos taurus
- T1 chain: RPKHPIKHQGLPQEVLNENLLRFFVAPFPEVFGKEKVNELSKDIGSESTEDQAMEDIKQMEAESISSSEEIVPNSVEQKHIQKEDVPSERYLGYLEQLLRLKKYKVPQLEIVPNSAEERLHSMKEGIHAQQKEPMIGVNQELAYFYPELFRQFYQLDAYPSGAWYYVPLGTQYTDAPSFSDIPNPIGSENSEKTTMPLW
METRIC NAME: αs1 CN, 6 hours, 11° C. (Volume)
Return type: number; implicit unit Volume.

In: Quick check: αs1 CN, 6 hours, 11° C. of bovine chymosin B variant #71 (A51V, K221V) (protein) GEVASVPLTNYLDSQYFGKIYLGTPPQEFTVLFDTGSSDFWVPSIYCKSNVCKNHQRFDPRKSSTFQNLGKPLSIHYGTGSMQGILGYDTVTVSNIVDIQQTVGLSTQEPGDVFTYAEFDGILGMAYPSLASEYSIPVFDNMMNRHLVAQDLFSVYMDRNGQESMLTLGAIDPSYYTGSLHWVPVTVQQYWQFTVDSVTISGVVVACEGGCQAILDTGTSVLVGPSSDILNIQQAIGATQNQYGEFDIDCDNLSYMPTVVFEINGKMYPLTPSAYTSQDQGFCTSGFQSENHSQKWILGDVFIREYYSVFDRANNLVGLAKAI ?
Out: 8.8e+06
